molecular target: mouse TRPM3α2 (mTRPM3) ion channel (Mus musculus (Mouse), UniProt J9SQF3); assay: TRPM3 ion channel driven Ca2+ uptake, Fluo-4 AM assay, mTRPM3alpha2 overexpressing flip-in HEK293 cells stimulated with pregnenolone sulfate; assay type: cell-based; details: PS (50 μM) stimulated, cpds. 500-599
Sequence (J9SQF3 other isoform, or with tags, fused parts or gaps): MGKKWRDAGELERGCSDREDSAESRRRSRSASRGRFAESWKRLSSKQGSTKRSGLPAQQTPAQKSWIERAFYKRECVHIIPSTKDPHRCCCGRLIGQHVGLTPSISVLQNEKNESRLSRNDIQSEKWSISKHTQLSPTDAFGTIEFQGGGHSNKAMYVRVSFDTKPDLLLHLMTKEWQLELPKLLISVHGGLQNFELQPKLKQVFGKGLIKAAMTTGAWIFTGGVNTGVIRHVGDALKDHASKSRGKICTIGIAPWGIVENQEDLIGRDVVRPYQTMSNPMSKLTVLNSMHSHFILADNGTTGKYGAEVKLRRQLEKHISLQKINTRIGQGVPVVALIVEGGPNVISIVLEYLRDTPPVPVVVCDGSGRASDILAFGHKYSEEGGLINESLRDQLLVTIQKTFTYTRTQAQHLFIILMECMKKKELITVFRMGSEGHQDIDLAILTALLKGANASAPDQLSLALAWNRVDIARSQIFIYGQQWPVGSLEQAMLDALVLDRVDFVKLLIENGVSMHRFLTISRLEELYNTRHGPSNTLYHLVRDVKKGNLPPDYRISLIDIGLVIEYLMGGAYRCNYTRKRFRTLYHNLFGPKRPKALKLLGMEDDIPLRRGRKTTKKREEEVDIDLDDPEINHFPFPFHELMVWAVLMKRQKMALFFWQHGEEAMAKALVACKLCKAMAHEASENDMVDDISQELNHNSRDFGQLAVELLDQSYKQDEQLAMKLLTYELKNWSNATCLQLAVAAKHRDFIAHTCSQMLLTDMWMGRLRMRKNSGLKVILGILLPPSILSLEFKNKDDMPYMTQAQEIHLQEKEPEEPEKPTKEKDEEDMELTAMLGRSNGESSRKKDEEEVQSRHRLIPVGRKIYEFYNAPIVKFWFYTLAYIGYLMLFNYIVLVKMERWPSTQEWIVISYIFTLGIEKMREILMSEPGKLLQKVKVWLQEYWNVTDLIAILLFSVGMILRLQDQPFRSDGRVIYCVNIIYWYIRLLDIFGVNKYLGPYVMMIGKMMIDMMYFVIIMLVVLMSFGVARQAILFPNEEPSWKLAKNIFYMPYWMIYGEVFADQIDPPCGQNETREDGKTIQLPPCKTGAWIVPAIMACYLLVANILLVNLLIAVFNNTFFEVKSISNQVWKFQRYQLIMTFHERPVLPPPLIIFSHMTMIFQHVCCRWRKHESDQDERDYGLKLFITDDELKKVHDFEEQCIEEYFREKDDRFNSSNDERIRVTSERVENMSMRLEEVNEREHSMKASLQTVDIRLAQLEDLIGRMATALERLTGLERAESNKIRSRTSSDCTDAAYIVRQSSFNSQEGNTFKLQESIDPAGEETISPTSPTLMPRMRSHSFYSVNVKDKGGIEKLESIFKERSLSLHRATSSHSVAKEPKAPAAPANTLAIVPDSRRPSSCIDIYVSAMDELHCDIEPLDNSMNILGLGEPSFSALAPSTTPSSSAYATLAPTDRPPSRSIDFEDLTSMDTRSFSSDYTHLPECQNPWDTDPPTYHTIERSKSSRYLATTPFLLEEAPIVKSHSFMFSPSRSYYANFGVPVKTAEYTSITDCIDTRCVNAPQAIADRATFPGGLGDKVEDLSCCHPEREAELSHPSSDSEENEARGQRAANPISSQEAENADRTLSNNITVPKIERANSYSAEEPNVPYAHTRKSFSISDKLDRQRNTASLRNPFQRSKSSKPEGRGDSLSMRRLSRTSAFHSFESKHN
pIC50: −log10 of the molar value.
RECORDED ENDPOINT: pIC50

COc1cccc(COc2ccc3oc(C)c(C(=O)NC4CCNCC4(F)F)c3c2)n1 (single isomer, unassigned) [cpd 570-En 1]; > 6.00
Cc1oc2ccc(OCc3ccc(F)cn3)cc2c1C(=O)NC1CCNCC1(F)F (single isomer, unassigned) [cpd 568-En 1]; > 6.00
CC(=O)NCCNC(=O)c1c(C)oc2ccc(OCc3scnc3C)cc12; > 6.00
Cc1ncsc1COc1cc(F)c2oc(C)c(C(=O)NC3CCNCC3(F)F)c2c1 (single isomer, unassigned) [cpd 573-En 2]; 4.70 to 6.00
Cc1oc2ccc(OCc3cccnc3C(F)F)cc2c1C(=O)NC1(C(N)=O)COC1; > 6.00
Cc1ncc(COc2ccc3oc(C)c(C(=O)NC4CCNCC4(F)F)c3c2)s1 (single isomer, unassigned) [cpd 549-En 2]; 4.70 to 6.00

Input: What value of pIC50 has been reported for the following compound? Cc1oc2ccc(OCc3ccccn3)cc2c1C(=O)NC1(CO)CCOC1 (single isomer, unassigned)
Output: > 6.00
